Target: T1, TGR26, rat-derived G protein-coupled receptor protein (rat, UniProt Q56UD9 1-329)
T1 construct: Expressed in CHO dhfr- cells from pAK-rGPR7; also called rat TGR26; TGR26 receptor
T1 sequence: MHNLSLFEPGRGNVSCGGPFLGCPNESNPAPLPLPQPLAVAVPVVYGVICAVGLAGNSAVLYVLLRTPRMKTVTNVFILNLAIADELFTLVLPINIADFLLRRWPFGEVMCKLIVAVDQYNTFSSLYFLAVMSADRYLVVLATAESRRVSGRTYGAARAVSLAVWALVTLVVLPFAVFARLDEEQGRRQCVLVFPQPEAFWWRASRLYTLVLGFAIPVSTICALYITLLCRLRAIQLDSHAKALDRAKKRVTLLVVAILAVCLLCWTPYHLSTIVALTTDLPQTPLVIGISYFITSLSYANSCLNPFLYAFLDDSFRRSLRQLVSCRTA
Assay: competition with [125I-Tyr10]-hGPR8L(1-23), membrane fraction of TGR26 expressing CHO cells
No end group written: not given here.
Entries annotated with measured pIC50
The quantity pIC50 is defined as the negative base-10 logarithm of the molar concentration.

Examples with answers:
BINDER | MEASURED_PROPERTY | REPORTED_RESULT
YKHVASPRYHTVGRAAGLLMGL (also called hGPR8L(2-23)) [Human GPR8 ligand (2-23)] | pIC50 | 6.62
XYKHVASPRYHTVGRAAGLLMGL (N-terminal Fmoc (N-9-fluorenylmethoxycarbonyl) on Trp 1, also called Fmoc-hGPR8L(1-23); Human GPR8 ligand (1-23) modified by Fmoc) [Fmoc-added Human GPR8L (1-23)] | pIC50 | 9.64
WYKHVASPRYHTVGRAAGL (also called hGPR8L(1-19)) [Human GPR8 ligand (1-19)] | pIC50 | 8.00
WYKHTASPRYHTVGRAAGLLMGL (also called pGPR8L(1-23); porcine homologue of GPR8 ligand peptide) [porcine GPR8 ligand (1-23)] | pIC50 | 9.92
WYKHVASPRYHTVGRAAGLLXGL (methionine sulfoxide, Met(O), at position 21, also called [MET(O)]-hGPR8L(1-23)) [Human GPR8 ligand (1-23) oxidant] | pIC50 | 9.54

Given the entry Ac-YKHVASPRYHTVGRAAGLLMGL (also called Ac-hGPR8L(2-23)) [[N-Acetyl-Tyr^2]-Human GPR8 ligand (2-23)] , report its measured pIC50.
6.24

Given the entry HVASPRYHTVGRAAGLLMGL (also called hGPR8L(4-23)) [Human GPR8 ligand (4-23)] , report its measured pIC50.
5.70
